B1: glmS ribozyme (parent)
chain: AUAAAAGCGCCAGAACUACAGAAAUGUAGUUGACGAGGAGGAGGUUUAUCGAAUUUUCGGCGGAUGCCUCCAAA

Variants of: B1
Assay: self-cleavage kobs at 2500 uM GlcN6P; higher = faster cleavage; RNA array
Conditions: with glucosamine-6-phosphate
This sample holds only a part of the variants without activity.

[
  {
    "variant code": "C16U G43C C71A",
    "reported relation": "<",
    "self-cleavage kobs at 2500 uM GlcN6P / s⁻¹": "1e-05"
  },
  {
    "variant code": "G13U G32U C34A G44A",
    "reported relation": "<",
    "self-cleavage kobs at 2500 uM GlcN6P / s⁻¹": "1e-05"
  },
  {
    "variant code": "U31G G32A A33C G41A A48G",
    "reported relation": "<",
    "self-cleavage kobs at 2500 uM GlcN6P / s⁻¹": "1e-05"
  },
  {
    "variant code": "A12U C70U",
    "reported relation": "=",
    "self-cleavage kobs at 2500 uM GlcN6P / s⁻¹": 0.0055
  },
  {
    "variant code": "G41C G63C",
    "reported relation": "<",
    "self-cleavage kobs at 2500 uM GlcN6P / s⁻¹": "1e-05"
  },
  {
    "variant code": "G9C G59C G63U",
    "reported relation": "<",
    "self-cleavage kobs at 2500 uM GlcN6P / s⁻¹": "1e-05"
  },
  {
    "variant code": "C8A U49C",
    "reported relation": "<",
    "self-cleavage kobs at 2500 uM GlcN6P / s⁻¹": "1e-05"
  },
  {
    "variant code": "A12U C67A",
    "reported relation": "=",
    "self-cleavage kobs at 2500 uM GlcN6P / s⁻¹": 0.0101
  },
  {
    "variant code": "G41C U46G U57C",
    "reported relation": "<",
    "self-cleavage kobs at 2500 uM GlcN6P / s⁻¹": "1e-05"
  },
  {
    "variant code": "G13U U30C",
    "reported relation": "=",
    "self-cleavage kobs at 2500 uM GlcN6P / s⁻¹": 0.000253
  },
  {
    "variant code": "U47C U55C",
    "reported relation": "=",
    "self-cleavage kobs at 2500 uM GlcN6P / s⁻¹": 0.0023
  },
  {
    "variant code": "A6C A14C G32A G38U",
    "reported relation": "<",
    "self-cleavage kobs at 2500 uM GlcN6P / s⁻¹": "1e-05"
  },
  {
    "variant code": "A14U A33G G38A",
    "reported relation": "<",
    "self-cleavage kobs at 2500 uM GlcN6P / s⁻¹": "1e-05"
  },
  {
    "variant code": "A12C A64G",
    "reported relation": "=",
    "self-cleavage kobs at 2500 uM GlcN6P / s⁻¹": 0.000209
  },
  {
    "variant code": "A18U",
    "reported relation": "=",
    "self-cleavage kobs at 2500 uM GlcN6P / s⁻¹": 0.00664
  },
  {
    "variant code": "C50G G60U",
    "reported relation": "=",
    "self-cleavage kobs at 2500 uM GlcN6P / s⁻¹": "4.39e-05"
  },
  {
    "variant code": "A12C G41U",
    "reported relation": "=",
    "self-cleavage kobs at 2500 uM GlcN6P / s⁻¹": 0.00034
  },
  {
    "variant code": "A52G A64G",
    "reported relation": "=",
    "self-cleavage kobs at 2500 uM GlcN6P / s⁻¹": 0.000616
  },
  {
    "variant code": "U56G C58A",
    "reported relation": "=",
    "self-cleavage kobs at 2500 uM GlcN6P / s⁻¹": 0.000312
  },
  {
    "variant code": "C11A A15U G44C",
    "reported relation": "<",
    "self-cleavage kobs at 2500 uM GlcN6P / s⁻¹": "1e-05"
  },
  {
    "variant code": "A53C C58G G60A C67U",
    "reported relation": "=",
    "self-cleavage kobs at 2500 uM GlcN6P / s⁻¹": "8.04e-05"
  },
  {
    "variant code": "A6C G35U C71A",
    "reported relation": "<",
    "self-cleavage kobs at 2500 uM GlcN6P / s⁻¹": "1e-05"
  }
]

Value source: the supplement of paper PMC7125110
